- Target entity: Nicotinamide phosphoribosyltransferase (Homo sapiens)
- Sequence (P43490 whole entry, looked up): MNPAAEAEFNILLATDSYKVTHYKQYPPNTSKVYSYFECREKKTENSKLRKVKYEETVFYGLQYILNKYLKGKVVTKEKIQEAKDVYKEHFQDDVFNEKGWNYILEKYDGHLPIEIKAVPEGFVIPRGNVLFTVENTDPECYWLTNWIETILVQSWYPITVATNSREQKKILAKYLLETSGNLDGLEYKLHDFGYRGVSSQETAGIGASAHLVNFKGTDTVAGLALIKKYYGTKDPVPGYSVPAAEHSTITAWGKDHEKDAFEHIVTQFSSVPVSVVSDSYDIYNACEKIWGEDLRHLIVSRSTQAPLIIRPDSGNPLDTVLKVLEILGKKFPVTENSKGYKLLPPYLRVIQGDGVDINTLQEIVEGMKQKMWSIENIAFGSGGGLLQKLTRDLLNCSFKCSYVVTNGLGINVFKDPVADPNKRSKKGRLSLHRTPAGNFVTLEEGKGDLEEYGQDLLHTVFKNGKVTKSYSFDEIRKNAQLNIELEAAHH
- Procedure summary: Inhibition of Nampt activity in H2O2-induced DNA damage in human MCF10A cells stably transfected with PIK3CA (H1047R) assessed as loss of PARP activity
- Type: cell-based
- Protocol conditions: MCF-10A
Value type: inhibitory concentration (µM)
Write the number in µM without appending the unit.

Param item = Cc1noc(C)c1CN(Cc1ccc2nc(C)n(C)c(=O)c2c1)c1ccc(C(=O)NCc2cccnc2)cc1 ; retrieve measured inhibitory concentration.
0.012

inhibitory concentration for CCCN(Cc1ccccc1Cl)c1ccc(C(=O)NCc2cccnc2)cc1 ?
0.24

Need inhibitory concentration, item Cc1nc2ccc(CN(CC3CC3)c3ccc(C(=O)NCc4cccnc4)cc3)cc2c(=O)n1C
0.019

Which measured inhibitory concentration value corresponds to O=C(NCc1cccnc1)c1ccc(N(Cc2ccccc2Cl)CC2CC2)cc1 ?
0.011

Given C#CCN(Cc1cc2c(=O)n(C)c(CO)nc2cc1Cl)c1ccc(C(=O)NCc2cccnc2)cc1 , state its recorded inhibitory concentration.
0.0001

Give its inhibitory concentration value. Item: CC(C)=CCN(Cc1ccc2ncn(C)c(=O)c2c1)c1ccc(C(=O)NCc2cccnc2)cc1
0.0004

Quick one: inhibitory concentration of C/C=C/CN(Cc1ccccc1Cl)c1ccc(C(=O)NCc2cccnc2)cc1 ?
0.0089

Given the compound CC(C)=CC(=O)N(Cc1ccc2nc(C)n(C)c(=O)c2c1)c1ccc(C(=O)NCc2cccnc2)cc1 , what is its reported inhibitory concentration?
2.2

Record request: inhibitory concentration value, item C#CCN(Cc1cc2c(=O)n(C)c(C)nc2cc1Cl)c1ccc(C(=O)NCc2nc3ccccc3[nH]2)cc1
3.2

Tell me the measured inhibitory concentration of C#CCN(Cc1cc2c(=O)n(C)c(CN3CCN(C)CC3)nc2cc1Cl)c1ccc(C(=O)NCc2cccnc2)cc1 , please.
5e-05

May I ask what inhibitory concentration has been recorded for CC(C)=CCN(Cc1cc2c(=O)n(C)c(C)nc2cc1Cl)c1ccc(C(=O)NCc2cccnc2)cc1 ?
0.0018

Could you tell me which inhibitory concentration is on file for C#CCCN(Cc1cc2c(=O)n(C)cnc2cc1Cl)c1ccc(C(=O)NCc2cccnc2)cc1 ?
0.03

Report inhibitory concentration for Cn1cnc2cc(Cl)c(C(=O)Nc3ccc(C(=O)NCc4cccnc4)cc3)cc2c1=O please.
0.048

Please report the recorded inhibitory concentration for C#CCCN(Cc1ccc2nc(C)n(C)c(=O)c2c1)c1ccc(C(=O)NCc2cccnc2)cc1 .
2.9

====

- Target entity: Nicotinamide phosphoribosyltransferase (Homo sapiens)
- Procedure summary: Inhibition of Nampt activity in H2O2-induced DNA damage in human MCF10A cells stably transfected with PIK3CA (H1047R) assessed as loss of PARP activity
- Format: cell-based
- Protocol conditions: MCF-10A
Value type: log10(inhibitory concentration) (log10 of the value in µM)
# values: log10(inhibitory concentration), units µM

Please look up its log10(inhibitory concentration): C#CCN(Cc1ccc2ncn(C)c(=O)c2c1)c1ccc(C(=O)NCc2cccnc2)cc1
-1.60

If you can, please state the reported log10(inhibitory concentration) value of C#CCN(Cc1cc2c(=O)n(C)c(C)nc2cc1Cl)c1ccc(C(=O)NCc2cccnc2)cc1 .
-3.35

Recorded log10(inhibitory concentration) of Cn1cnc2cc(Cl)c(CN(CC3CC3)c3ccc(C(=O)NCc4cccnc4)cc3)cc2c1=O , please.
-1.92

Reported log10(inhibitory concentration) for CC(C)=CCN(Cc1ccc2nc(C)n(C)c(=O)c2c1)c1ccc(C(=O)NCc2cccnc2)cc1 : what is it?
-3.64

Form field: reported log10(inhibitory concentration) of C/C=C/CN(Cc1ccc2nc(C)n(C)c(=O)c2c1)c1ccc(C(=O)NCc2cccnc2)cc1
-2.80
